Data provenance: patent US20260226034A1

Biological target: UniProtKB P0DTD1
Experiment: NSP14 MTase inhibition assay at 37° C. (MTase-Glo SAH detection)
Assay type: biochemical, SARS-CoV-2
Settings: 0.3 nM NSP14, 2.5 μM SAM, 2.5 μM GpppA RNA, 45 min at 37° C.; read-out: Nsp14 Mtase Inh. IC50
In this section we review reported pIC50 values for a set of molecules.
Convention used: pIC50 is expressed as -log10 of the molar concentration.

Answered cases to consult:
>  <smiles repr>
Cc1c(S(=O)(=O)c2ccc3[nH]ncc3c2)cc(C(=O)N[C@@H]2CCN(c3cccc(C(F)(F)F)c3)C2)n1C

>  <quantitative readout>
8.54

$$$$
>  <smiles repr>
Cc1c(S(=O)(=O)c2ccc3[nH]ncc3c2)cc(C(=O)N[C@@H]2CCN(c3cccc(C(F)(F)F)n3)C2)n1C

>  <quantitative readout>
9.10

$$$$
>  <smiles repr>
Cc1c(S(=O)(=O)c2ccc3[nH]ncc3c2)cc(C(=O)N[C@@H]2CCN(c3cc(C#N)ccn3)C2)n1C

>  <quantitative readout>
9.22

$$$$

Lookup: pIC50 / UniProtKB P0DTD1 / Cc1c(S(=O)(=O)c2ccc3[nH]ncc3c2)cc(C(=O)N[C@@H]2CCN(c3ccc(F)cc3C#N)C2)n1C
9.35

Would you kindly repeat that for Cc1c(S(=O)(=O)c2cc(Cl)c3[nH]ncc3c2)cc(C(=O)N[C@@H]2CCN(c3ccnnc3)C2)n1C ?
9.43
